- methodNotes: Caco-2 membrane permeability, improved method as used in the following Examples (96-well, 20 to 24 h preincubation)
- Assay type: in vitro ADME
- conditionContext: human; Papp, Caco-2 membrane permeability, improved method; read-out: Caco-2
Starred links: 1 amine or outer side, 2 acyl side, 3 side chain; linkers in the order of their positions; H or OH if unused. Positions of bridges follow the written chain, without caps; N, C: chain ends. Non-standard residues stand in square brackets, D forms with d. Residues, ends and D or L forms follow the SMILES beside them. ξ: configuration not given here. *: point of attachment. 3Pal(6-NMe2) = CN(C)c1ccc(C[C@H](N)C(=O)O)cn1; Phe(4-CHF2) = N[C@@H](Cc1ccc(C(F)F)cc1)C(=O)O; X5 = O=C(C(CCc1noc(=O)[nH]1)N[*:1])[*:2]; X3 = O=C([C@H](CCCCO)N[*:1])[*:2]; NMeF = CN[C@@H](Cc1ccccc1)C(=O)O; NMeGABA = CN(CCCC(=O)[*:2])[*:1]; NMeI = CC[C@H](C)[C@H](NC)C(=O)O; ξThr(3R) = C[C@@H](O)C(N)C(=O)O; NMeL = CN[C@@H](CC(C)C)C(=O)O; Propyl(2R-OH) = C[C@@H](O)C*; NMeAbu = CC[C@H](NC)C(=O)O; NMeS = CN[C@@H](CO)C(=O)O; NMeA = CN[C@@H](C)C(=O)O; Piperidide = C1CCN(*)CC1; NBuGly = CCCCNCC(=O)O; Isopentyl = CC(C)CC*; Sar = CNCC(=O)O; tBu = CC(C)(C)*
Items are presented alongside their recorded Papp A→B at 180 min.
propertyMeasured: Papp A→B at 180 min (×10⁻⁶ cm/s)

INSERT INTO results (molecule, reported) VALUES
  ('CC(C)C[C@H]1C(=O)N[C@@H](COC(C)(C)C)C(=O)N(C)[C@@H](Cc2ccccc2)C(=O)N(C)[C@@H](CC(C)C)C(=O)N[C@H](C(=O)N2CCCCC2)CC(=O)N[C@@H](C(C)C)C(=O)N(C)[C@@H](Cc2ccccc2)C(=O)N[C@@H](COC[C@@H](C)O)C(=O)N(C)[C@@H](CC(C)C)C(=O)N[C@@H](C(C)C)C(=O)N(C)CC(=O)N1C [pd492] (V[NMeF]S(Propyl(2R-OH))[NMeL]V[Sar][NMeL]S(tBu)[NMeF][NMeL]D-Piperidide; lactam N-11)', 2.5),
  ('CCCCN1CC(=O)N(C)[C@@H](Cc2ccccc2)C(=O)N(C)[C@@H](CC(C)C)C(=O)N[C@@H](CC(C)C)C(=O)N(C)[C@@H](CC(C)C)C(=O)N[C@H](C(=O)N2CCCCC2)CC(=O)N(C)CC(=O)N(C)[C@@H](CC(C)C)C(=O)N[C@@H](C(C)C)C(=O)N(C)[C@@H](CC(C)C)C(=O)NC(CCc2noc(=O)[nH]2)C1=O (stereo partly drawn) [pd488] ([Sar][NMeL]V[NMeL][X5][NBuGly][NMeF][NMeL]L[NMeL]D-Piperidide; lactam N-11)', 1.6),
  ('CC(C)C[C@H]1C(=O)N[C@@H](C(C)C)C(=O)N(C)[C@@H](Cc2ccccc2)C(=O)N(C)[C@@H](Cc2ccccc2)C(=O)N[C@@H](COC(C)(C)C)C(=O)N(C)[C@@H](CC(C)C)C(=O)N[C@@H](CCCCO)C(=O)N(C)[C@@H](CC(C)C)C(=O)N(C)[C@@H](CC(C)C)C(=O)N[C@H](C(=O)N2CCCCC2)CC(=O)N(C)CCCC(=O)N1C [pd446] ([NMeGABA][NMeL]V[NMeF][NMeF]S(tBu)[NMeL][X3][NMeL][NMeL]D-Piperidide; lactam N-11)', 1.3),
  ('CC[C@H](C)[C@H]1C(=O)N[C@@H]([C@@H](C)O)C(=O)N(C)CC(=O)N(C)[C@@H](CC)C(=O)N[C@H](C(=O)N2CCCCC2)CC(=O)N(C)[C@@H](C)C(=O)N[C@@H](Cc2ccc(C(F)F)cc2)C(=O)N(C)[C@@H](CC(C)C)C(=O)N(C)[C@@H](Cc2ccccc2)C(=O)N[C@@H](CC(C)C)C(=O)N(C)[C@@H](CC(C)C)C(=O)N1C [pd473] ([NMeA][Phe(4-CHF2)][NMeL][NMeF]L[NMeL][NMeI]T[Sar][NMeAbu]D-Piperidide; lactam N-11)', 4.5),
  ('CCCCN1CC(=O)N(C)[C@@H](CC(C)C)C(=O)N[C@H](C(=O)N2CCCCC2)CC(=O)N(C)[C@@H](CC)C(=O)N[C@@H](CC(C)C)C(=O)N(C)[C@@H](CC(C)C)C(=O)N(C)[C@@H](Cc2ccccc2)C(=O)NC(CCc2noc(=O)[nH]2)C(=O)N(C)[C@@H](CC(C)C)C(=O)N(C)[C@@H](CC(C)C)C(=O)NC([C@@H](C)O)C1=O (stereo partly drawn) [pd487] ([NMeAbu]L[NMeL][NMeF][X5][NMeL][NMeL][ξThr(3R)][NBuGly][NMeL]D-Piperidide; lactam N-11)', 2.2),
  ('CC(C)CCOC[C@H]1C(=O)N[C@@H]([C@@H](C)O)C(=O)N(C)CC(=O)N(C)[C@@H](CC(C)C)C(=O)N[C@H](C(=O)N2CCCCC2)CC(=O)N(C)[C@@H](C)C(=O)N[C@@H](CC(C)C)C(=O)N(C)[C@@H](CC(C)C)C(=O)N(C)[C@@H](Cc2ccccc2)C(=O)N[C@@H](CC(C)C)C(=O)N(C)[C@@H](Cc2ccccc2)C(=O)N1C [pd308] ([NMeA]L[NMeL][NMeF]L[NMeF][NMeS](Isopentyl)T[Sar][NMeL]D-Piperidide; lactam N-11)', 2.1),
  ('CCCCN1CC(=O)N(C)[C@@H](CC(C)C)C(=O)N[C@H](C(=O)N2CCCCC2)CC(=O)N(C)[C@@H](C)C(=O)N[C@@H](Cc2ccc(N(C)C)nc2)C(=O)N(C)[C@@H](CC(C)C)C(=O)N(C)[C@@H](Cc2ccccc2)C(=O)N[C@@H](CC(C)C)C(=O)N(C)[C@@H](C)C(=O)N(C)[C@@H](CC(C)C)C(=O)N[C@@H]([C@@H](C)O)C1=O [pd398] ([NMeA][3Pal(6-NMe2)][NMeL][NMeF]L[NMeA][NMeL]T[NBuGly][NMeL]D-Piperidide; lactam N-11)', 2.7);

Data provenance: patent US20200131669A1
